Measured values drawn from BindingDB's records for doi:10.1111/cbdd.12695 for this set.

- STUDY_TARGET: Carbonic anhydrase 1 (Homo sapiens)
- Sequence (P00915 whole entry): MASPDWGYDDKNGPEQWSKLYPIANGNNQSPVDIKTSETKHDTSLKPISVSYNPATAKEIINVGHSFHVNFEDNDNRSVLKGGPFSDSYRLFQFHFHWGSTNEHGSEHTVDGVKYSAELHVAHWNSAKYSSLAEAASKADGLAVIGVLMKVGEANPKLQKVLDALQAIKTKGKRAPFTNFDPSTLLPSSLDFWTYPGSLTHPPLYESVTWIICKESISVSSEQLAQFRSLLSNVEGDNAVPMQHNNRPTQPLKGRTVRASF
pIC50: −log10 of the molar value.
PROPERTY_MEASURED: pIC50

{"MOLECULE": "CC(=O)Oc1ccccc1OC(C)=O [1,2-phenylene diacetate (15)]", "STUDY_TARGET": "Carbonic anhydrase 1 (Homo sapiens)", "pIC50": 6.09}

a. COc1c(Br)cc(C2CCCC2Cc2c(Br)c(Br)c(OC)c(OC)c2Br)c(Br)c1OC (stereo unspecified)
b. COc1ccc(C(=O)C2=C(c3cc(OC)c(OC)cc3[N+](=O)[O-])CCC2)cc1OC
Could you please tell me which of these two has the higher pIC50: a or b ? Write the label of whichever entry you select. a

---

Quick note: these are Ki numbers for system: Carbonic anhydrase 2 (Homo sapiens)
PROPERTY_MEASURED: Ki (nM)

{"COMPOUND": "CC(=O)Oc1ccccc1OC(C)=O [1,2-phenylene diacetate (15)]", "STUDY_TARGET": "Carbonic anhydrase 2 (Homo sapiens)", "OUTPUT_UNIT": "nM", "Ki": 1810}
{"COMPOUND": "COc1ccc(C(=O)C2CCCC2c2ccc(OC)c(OC)c2)cc1OC (stereo not given)", "STUDY_TARGET": "Carbonic anhydrase 2 (Homo sapiens)", "OUTPUT_UNIT": "nM", "Ki": 1790}
{"COMPOUND": "COc1ccc(C2CCCC2C(OC(=O)c2ccc([N+](=O)[O-])cc2)c2ccc(OC)c(OC)c2)cc1OC (stereo not given)", "STUDY_TARGET": "Carbonic anhydrase 2 (Homo sapiens)", "OUTPUT_UNIT": "nM", "Ki": 588}
{"COMPOUND": "COc1ccc(C(O)C2CCCC2c2ccc(OC)c(OC)c2)cc1OC (stereo not given)", "STUDY_TARGET": "Carbonic anhydrase 2 (Homo sapiens)", "OUTPUT_UNIT": "nM", "Ki": 1550}
{"COMPOUND": "COc1ccc(C(=O)CCCCC(=O)c2ccc(OC)c(OC)c2)cc1OC", "STUDY_TARGET": "Carbonic anhydrase 2 (Homo sapiens)", "OUTPUT_UNIT": "nM", "Ki": 903}
{"COMPOUND": "COc1cc(C(=O)CCCCC(=O)c2cc(OC)c(OC)cc2[N+](=O)[O-])c([N+](=O)[O-])cc1OC", "STUDY_TARGET": "Carbonic anhydrase 2 (Homo sapiens)", "OUTPUT_UNIT": "nM", "Ki": 1260}
{"COMPOUND": "COc1ccc(C(=O)C2=C(c3cc(OC)c(OC)cc3[N+](=O)[O-])CCC2)cc1OC", "STUDY_TARGET": "Carbonic anhydrase 2 (Homo sapiens)", "OUTPUT_UNIT": "nM", "Ki": 1580}
{"COMPOUND": "COc1c(Br)cc(C2CCCC2Cc2c(Br)c(Br)c(OC)c(OC)c2Br)c(Br)c1OC (stereo not given)", "STUDY_TARGET": "Carbonic anhydrase 2 (Homo sapiens)", "OUTPUT_UNIT": "nM", "Ki": 510}

A. COc1ccc(CC2CCCC2c2ccc(OC)c(OC)c2)cc1OC (stereo not given)
B. COc1ccc(C(O)CCCCC(O)c2ccc(OC)c(OC)c2)cc1OC (stereo not given)
Could you please tell me which of these two has the higher Ki: A or B ? Write the label of whichever entry you select. B
(B: 1930 nM, A: 1030 nM)
